# Test system: HTT
# Experiment Notes: RT-qPCR splicing assay, HTT AJ/CJ mRNA
# Type: cell-based, human
# Conditions Used: Homo sapiens, 24 h, decrease in canonical junction mRNA, A673 or K562 cells
pIC50: −log10 of the molar value.
Can you tell me pIC50 for the items I'm about to list?

GET /values?readout=pIC50&item= c1cnn(-c2ccc3c(c2)COc2nc(N4CC5(CCNCC5)C4)ccc2-3)c1
< 5.00

Recorded pIC50 for COc1cc(-c2ccc3c(c2)COc2nc(N4CCC(N(C)C5CCC5)C4)ccc2-3)cnn1 (stereo not drawn) , please?
6.00 to 7.00

For CC(C)(C)NC1CCN(c2ccc3c(n2)OCc2cc(-c4ccnnc4)ccc2-3)C1 (stereo not drawn) , what is its reported pIC50?
5.00 to 6.00

pIC50 lookup needed for CCN(c1ccc2c(n1)OCc1cc(-n3cccn3)ccc1-2)[C@@H]1C[C@H]2CC[C@@H](C1)N2 , thanks.
6.00 to 7.00

Sample CCC(C)(C)NC1CCN(c2ccc3c(n2)OCc2cc(-c4cnnc(OC)c4)ccc2-3)C1 (stereo not drawn) — what was its pIC50?
> 7.00

Below are 4 compounds. Give each one its pIC50.
1. CC(C)(C)N[C@H]1CCN(c2ccc3c(n2)OCc2cc(-c4cn[nH]c4)ccc2-3)C1
2. COc1cc(-c2ccc3c(c2)COc2nc(N4CCC(N(C)CC5CC5)C4)ccc2-3)cnn1 (stereo not drawn)
3. COc1cc(-c2ccc3c(c2)COc2nc(N4CCC(NC(C)(C)C)CC4)ccc2-3)cnn1
4. Cn1ncc(-c2ccc3c(c2)COc2nc(OC4CC5CC(F)(F)C(C4)N5)ccc2-3)cc1=O (stereo not drawn)

6.00 to 7.00
6.00 to 7.00
< 5.00
< 5.00

---

Exercise: for every item that follows, state its recorded pIC50.
# Tested on: HTT
# Experiment Notes: Gene panel canonical junction qPCR assay, HTT CJ mRNA (Table 7)
# Type: cell-based, human
# Conditions Used: Homo sapiens, read-out: HTT CJ mRNA decrease IC50
pIC50: −log10 of the molar value.

I am curious: what pIC50 value has been reported for COc1cc(-c2ccc3c(c2)COc2nc(N(C)[C@@H]4C[C@H]5CC[C@@H](C4)N5)ccc2-3)ccn1 [Compound 156] ?
> 7.00

Field request: pIC50 | item: COc1cc(-c2ccc3c(c2)COc2nc(N4CCC(N5CCC5)C4)ccc2-3)cnn1 (centres unmarked) [Compound 312]
6.00 to 7.00

# input compound: COc1cc(-c2ccc3c(c2)COc2nc(N4CCN[C@H](C(C)(C)C)C4)ccc2-3)cnn1 [Compound 317] ; wanted: its pIC50
6.00 to 7.00

Hi there! I need pIC50 for each item below, if you can.
1. COc1cc(-c2cc3c(cc2F)-c2ccc(O[C@@H]4C[C@H]5CC[C@@H](C4)N5)nc2OC3)cnn1 [Compound 243]
2. CN(c1ccc2c(n1)OCc1cc(-n3cc(N)cn3)ccc1-2)[C@@H]1C[C@H]2CC[C@@H](C1)N2 [Compound 172]
3. CN1CCCC2(CCN2c2ccc3c(n2)OCc2cc(-c4cn[nH]c4)ccc2-3)C1 (centres unmarked) [Compound 222]

1: > 7.00; 2: 6.00 to 7.00; 3: < 5.00

Please state, for each entry, its recorded pIC50.
1. FC1(F)CC2CC(Nc3ccc4c(n3)OCc3cc(-c5cn[nH]c5)ccc3-4)CC1N2 (centres unmarked) [Compound 241]
2. CC(C)(C)NC1CCN(c2ccc3c(n2)OCc2cc(-c4c(F)cn[nH]c4=O)ccc2-3)C1 (centres unmarked) [Compound 315]

["5.00 to 6.00", "< 5.00"]

Cited source for all entries: patent US20240400584A1
